Consider the following molecules and their measured MIC readings.
Tested on: Bacillus subtilis
Test: Inhibitory activity was determined against bacillus subtilis (ATCC 82)
Type: functional
Non-standard residues stand in square brackets, D forms with d. Residues, ends and D or L forms follow the SMILES beside them. Orn = NCCC[C@H](N)C(=O)O
// units = µg/mL; emit number, no label

Molecule	Assay endpoint	Value observed
CC(C)C[C@@H]1NC(=O)[C@H](CCCN)NC(=O)[C@H](C(C)C)NC(=O)[C@H](Cc2ccc(O)cc2)NC(=O)[C@H](Cc2ccccc2)NC(=O)[C@H](CC(N)=O)NC(=O)[C@@H](Cc2ccccc2)NC(=O)[C@H](Cc2ccccc2)NC(=O)[C@@H]2CCCN2C(=O)[C@@H](Cc2ccccc2)NC1=O	MIC	0.6
CC(C)C[C@@H]1NC(=O)[C@H](CCCN)NC(=O)[C@H](C(C)C)NC(=O)[C@H](Cc2ccc(O)cc2)NC(=O)[C@H](Cc2ccc(O)cc2)NC(=O)[C@H](CC(N)=O)NC(=O)[C@@H](Cc2ccccc2)NC(=O)[C@H](Cc2ccccc2)NC(=O)[C@@H]2CCCN2C(=O)[C@@H](Cc2ccccc2)NC1=O	MIC	5
CC(C)C[C@@H]1NC(=O)[C@H](CCCN)NC(=O)[C@H](C(C)C)NC(=O)[C@H](Cc2ccc(O)cc2)NC(=O)[C@H](CC(N)=O)NC(=O)[C@H](CC(N)=O)NC(=O)[C@@H](Cc2ccccc2)NC(=O)[C@H](Cc2ccccc2)NC(=O)[C@@H]2CCCN2C(=O)[C@@H](Cc2ccccc2)NC1=O	MIC	0.4
CC(C)C[C@@H]1NC(=O)[C@H](CCCN)NC(=O)[C@H](C(C)C)NC(=O)[C@H](Cc2ccc(O)cc2)NC(=O)[C@H](Cc2c[nH]c3ccccc23)NC(=O)[C@H](CC(N)=O)NC(=O)[C@@H](Cc2ccccc2)NC(=O)[C@H](Cc2ccccc2)NC(=O)[C@@H]2CCCN2C(=O)[C@@H](Cc2ccccc2)NC1=O	MIC	3.8
CC(C)C[C@@H]1NC(=O)[C@H](CCCN)NC(=O)[C@H](C(C)C)NC(=O)[C@H](Cc2ccc(O)cc2)NC(=O)[C@H](C(C)C)NC(=O)[C@H](CC(N)=O)NC(=O)[C@@H](Cc2ccccc2)NC(=O)[C@H](Cc2ccccc2)NC(=O)[C@@H]2CCCN2C(=O)[C@@H](Cc2ccccc2)NC1=O	MIC	2.9

For reference, reported MIC for `CC(C)C[C@@H]1NC(=O)[C@H](CCCN)NC(=O)[C@H](C(C)C)NC(=O)[C@H](Cc2ccc(O)cc2)NC(=O)[C@H](CCCN=C(N)N)NC(=O)[C@H](CC(N)=O)NC(=O)[C@@H](Cc2ccccc2)NC(=O)[C@H](Cc2ccccc2)NC(=O)[C@@H]2CCCN2C(=O)[C@@H](Cc2ccccc2)NC1=O` stands at 0.3

For reference, reported MIC for CC(C)C[C@@H]1NC(=O)[C@H](CCCN)NC(=O)[C@H](C(C)C)NC(=O)[C@H](Cc2ccc(O)cc2)NC(=O)[C@H](CCC(N)=O)NC(=O)[C@H](CC(N)=O)NC(=O)[C@@H](Cc2ccccc2)NC(=O)[C@H](Cc2ccccc2)NC(=O)[C@@H]2CCCN2C(=O)[C@@H](Cc2ccccc2)NC1=O [TYROCIDINE A] (cyclo(F[dF]NQYV[Orn]L[dF]P)) stands at 8.3
